Measured IC50 of individual entries
Target: recombinant human FLAP protein (Homo sapiens)
Experiment: FLAP binding assay (SPA, displacement of [125I]L-691,831)
Details: membranes of sf9 cells expressing human FLAP, [125I]L-691,831 probe; read-out: hFLAP binding IC50
Express the result in nM but write the number alone.

* Nc1ncc(-c2ccc(C3(C(=O)Nc4ccc(Cc5ccccc5)cc4)CCOCC3)cc2)cn1 [Example 54] | 44.5
* CNc1ncc(-c2ccc(C3(C(=O)Nc4ccc(-c5csc(C)n5)cn4)CCOCC3)cc2)cn1 [Example 193] | 10.1
* COc1cncc(-c2ccc(C(C)(C(=O)Nc3ccc(C)nn3)C(C)C)cc2)c1 (centres unmarked) [Example 114] | 290
* Nc1ncc(-c2ccc(C3(C(=O)Nc4ccc(Cl)c(F)c4)CCOCC3)cc2)cn1 [Example 66] | 11.9
* Nc1ncc(-c2ccc(C3(C(=O)Nc4ccc(OCc5ccccc5)c(Cl)c4)CCOCC3)cc2)cn1 [Example 49] | 27
* Nc1ncc(-c2ccc(C3(C(=O)Nc4ccc(Cc5ccncc5)cc4)CCOCC3)cc2)cn1 [Example 28] | 121

Prompt: Look up IC50 with recombinant human FLAP protein (Homo sapiens) for this compound: CS(=O)(=O)NC(=O)c1ccc(NC(=O)C2(c3ccc(-c4cnc(N)nc4)cc3)CCC2)nc1 [Example 105]
Completion: 17.5

Prompt: Please do the same for Nc1ncc(-c2ccc(C3(C(=O)Nc4cnc(-c5ccccc5)nc4)CCOCC3)cc2)cn1 [Example 65] as well.
Completion: 14

====

Measured IC50 of individual entries
Molecular target: recombinant human FLAP protein (Homo sapiens)
Construct: made in house; host or cells: Sf9 insect cells (membrane fraction, 100,000 x g pellet)
Experiment: FLAP binding assay (SPA, displacement of [125I]L-691,831)
Settings: membranes of sf9 cells expressing human FLAP, [125I]L-691,831 probe; read-out: hFLAP binding IC50
Express the result in nM but write the number alone.

Would you please look over these solved cases?
- N#Cc1ccc(NC(=O)C2(c3ccc(-c4cnc(N)nc4)cc3)CCOCC2)cc1C(F)(F)F [Example 40]: 29
- CCC(C)(C(=O)Nc1ccncc1)c1ccc(-c2cnc(N)nc2)cc1 (centres unmarked) [Example 231]: 84
- Nc1ncc(-c2ccc(C3(C(=O)Nc4cccc(S(=O)(=O)N5CCOCC5)c4)CCOCC3)cc2)cn1 [Example 35]: 390
- CS(=O)(=O)c1ccc(NC(=O)C2(c3ccc(-c4cnc(N)nc4)cc3)CCC2)cc1 [Example 233]: 6.5
- O=C(Nc1ccc(Oc2ccccc2)cn1)C1(c2ccc(-c3cnc4[nH]ccc4c3)cc2)CCOCC1 [Example 174]: 18.1

Prompt: May I ask what IC50 has been recorded for Nc1ncc(-c2ccc(C3(C(=O)Nc4ccc(-c5ccccc5)cn4)CCC3)cc2)cn1 [Example 201] ?
Completion: 3.75

Prompt: Please do the same for Cn1ccc(NC(=O)C2(c3ccc(-c4cnc(N)nc4)cc3)CCC2)n1 [Example 222] as well.
Completion: 43.5

Prompt: Please do the same for CC(C)(C(=O)Nc1ccccn1)c1ccc(-c2cnc(N)nc2)cc1 [Example 158] as well.
Completion: 36

====

Target: recombinant human FLAP protein (Homo sapiens)
Sequence (P20292 1-161): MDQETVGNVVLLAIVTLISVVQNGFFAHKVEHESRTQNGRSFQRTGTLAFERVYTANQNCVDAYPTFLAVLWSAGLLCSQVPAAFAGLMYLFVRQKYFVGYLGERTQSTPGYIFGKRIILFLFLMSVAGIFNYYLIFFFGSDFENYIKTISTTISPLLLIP
Test: FLAP binding assay (SPA, displacement of [125I]L-691,831)
Details: membranes of sf9 cells expressing human FLAP, [125I]L-691,831 probe; read-out: hFLAP binding IC50
Measured IC50 of individual entries
Express the result in nM but write the number alone.

* Cc1noc(-c2ccc(NC(=O)C3(c4ccc(-c5cnc(N)nc5)cc4)CCOCC3)nc2)n1 | 35.5

Prompt: May I ask what IC50 has been recorded for Cc1cnccc1NC(=O)C1(c2ccc(-c3cnc(N)nc3)cc2)CCC1 ?
Completion: 50.7

Prompt: Please do the same for Nc1ncc(-c2ccc(C3(C(=O)Nc4ccncn4)CCC3)cc2)cn1 as well.
Completion: 17.5

Prompt: Please do the same for Nc1ncc(-c2ccc(C3(C(=O)Nc4cccc(-c5cnco5)c4)CCOCC3)cc2)cn1 as well.
Completion: 26

Prompt: Please do the same for Nc1ncc(-c2ccc(C3(C(=O)Nc4ccc(C(F)(F)F)nc4)CCOCC3)cc2)cn1 as well.
Completion: 84

Prompt: Please do the same for Nc1ncc(-c2ccc(C3(C(=O)Nc4cc(-c5ccccn5)no4)CCOCC3)cc2)cn1 as well.
Completion: 380

Prompt: Please do the same for COC(=O)c1sc(-c2ccc(Cl)cc2)cc1NC(=O)C1(c2ccc(-c3cnc(N)nc3)cc2)CCOCC1 as well.
Completion: 53.5

Prompt: Please do the same for COC(=O)c1ccc(NC(=O)C2(c3ccc(-c4cnc(N)nc4)cc3)CCC2)nc1 as well.
Completion: 2.35

Prompt: Please do the same for Cc1nc(-c2ccc(NC(=O)C3(c4ccc(-c5cnc(N)c(CO)c5)cc4)CCOCC3)nc2)cs1 as well.
Completion: 6.65

Prompt: Please do the same for N#Cc1ccc(NC(=O)C2(c3ccc(-c4cnc(N)nc4)nc3)CCC2)nc1 as well.
Completion: 65

Prompt: Please do the same for Nc1ncc(-c2ccc(C3(C(=O)Nc4cc(C(F)(F)F)ccc4N4CCOCC4)CCOCC3)cc2)cn1 as well.
Completion: 54

Prompt: Please do the same for COC(=O)c1sc(-c2ccccc2)cc1NC(=O)C1(c2ccc(-c3cnc(N)nc3)cc2)CCOCC1 as well.
Completion: 18

Prompt: Please do the same for N#Cc1ccc(NC(=O)C2(c3ccc(-c4cnc(N)nc4)cc3)CCC2)nc1 as well.
Completion: 7.45

Prompt: Please do the same for Nc1ncc(-c2ccc(C3(C(=O)Nc4ccc(CN5CCS(=O)(=O)CC5)cc4)CCOCC3)cc2)cn1 as well.
Completion: 360

Prompt: Please do the same for Nc1ncc(-c2ccc(C3(C(=O)Nc4ccc(-c5cccnc5)cc4)CCOCC3)cc2)cn1 as well.
Completion: 6.2

Prompt: Please do the same for COc1ccc(NC(=O)C2(c3ccc(-c4cnc(N)nc4)cc3)CCC2)cn1 as well.
Completion: 12.6
